Attribution: patent US9937235B2

Target: T1, human PrRP receptor, GPR10, transfected in CHO cells (human, UniProt P49683 1-370)
T1 construct: whole, on cells; also called human GPR10 receptor; the human receptor GPR10 in CHO cells
T1 sequence (looked up): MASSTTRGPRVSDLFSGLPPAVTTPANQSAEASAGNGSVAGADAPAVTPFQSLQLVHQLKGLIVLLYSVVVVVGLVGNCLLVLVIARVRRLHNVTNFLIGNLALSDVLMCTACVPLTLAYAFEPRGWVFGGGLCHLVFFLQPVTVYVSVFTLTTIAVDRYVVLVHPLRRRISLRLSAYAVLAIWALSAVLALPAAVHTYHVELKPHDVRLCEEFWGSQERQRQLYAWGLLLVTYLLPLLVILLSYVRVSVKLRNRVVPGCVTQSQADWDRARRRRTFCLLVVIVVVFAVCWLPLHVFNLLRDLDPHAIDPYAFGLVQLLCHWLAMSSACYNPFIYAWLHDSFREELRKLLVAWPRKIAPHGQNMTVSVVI
Assay: competition with 125I-human PrRP31 on CHO cells with transfected human GPR10
Where no end group is shown, it is not given here. [ ]: non-standard residue; d: D form. The star is where a group is joined. Phe(F5) = N[C@@H](Cc1c(F)c(F)c(F)c(F)c1F)C(=O)O; 1Nal = N[C@@H](Cc1cccc2ccccc12)C(=O)O; Palmitoyl = CCCCCCCCCCCCCCCC(=O)*; Myristoyl = CCCCCCCCCCCCCC(=O)*; PheCl2 = dichlorophenylalanine; Lauroyl = CCCCCCCCCCCC(=O)*; PheNO2 = nitrophenylalanine; Decanoyl = CCCCCCCCCC(=O)*; Nle = CCCC[C@H](N)C(=O)O
metric: Ki (nM)
Note: unit nM is implicit; provide only the numeric part.

These recorded examples may help you get a feel for the data.
QHSMETRTPDINPAWYTGRGIRPVGRF-NH2 (shortened PrRP31 analog) [analog no. 48]    5.92
Decanoyl-SRAHQHS[Nle]ETRTPDINPAWYTGRGIRPVGRF-NH2 [analog no. 16]    1.46
Palmitoyl-SRAHQHS[Nle]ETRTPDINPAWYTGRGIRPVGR[PheCl2]-NH2 [analog no. 26]    1.05
Palmitoyl-SRAHQHS[Nle]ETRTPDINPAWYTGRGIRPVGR[PheNO2]-NH2 [analog no. 29]    0.77

Exam item: Name the reported Ki value associated with the binder SRAHQHS[Nle]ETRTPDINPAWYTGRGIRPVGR[PheCl2]-NH2 [analog no. 24]
Marked response: 2.27

Exam item: Ki lookup needed for TPDINPAWYTGRGARPFGRF-NH2 [analog no. 42] , thanks.
Marked response: 583

Exam item: Report Ki for SRAHQHS[Nle]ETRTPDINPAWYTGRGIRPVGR[1Nal]-NH2 [analog no. 21] please.
Marked response: 34.5

Exam item: Quick one: Ki of Myristoyl-SRAHQHS[Nle]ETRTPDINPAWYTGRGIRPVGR[PheNO2]-NH2 [analog no. 28] ?
Marked response: 1.59

Exam item: Which Ki value is on record for SRAHQHS[Nle]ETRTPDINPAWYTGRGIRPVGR[Phe(F5)]-NH2 [analog no. 32] ?
Marked response: 8.59

Exam item: Could you share which Ki value was measured for SRAHQHS[Nle]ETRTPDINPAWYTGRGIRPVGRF-NH2 [analog no. 14] ?
Marked response: 1.92

Exam item: // query Ki value for entry [code f][code r]GVPRIGRGTYWAPNIDPT-NH2 [analog no. 36]
Marked response: 6290

Exam item: Using the record for Lauroyl-SRAHQHS[Nle]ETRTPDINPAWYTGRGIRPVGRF-NH2 [analog no. 17] , report its Ki.
Marked response: 1.19
